All figures here come from patent US8883782B2.

Tested on: Aβ40 in conditioned medium of cells stably expressing Amyloid Precursor Protein (APP)
measurement-notes: In vitro BACE cell-based assay (Aβ40 in conditioned medium, sandwich ELISA)
recorded-conditions: Homo sapiens, HEK293, average IC50; read-out: HEK cell assay
Quick reference for IC50 among some molecules
measured-parameter: IC50

>>> measured_value("NC1=N[C@@]2(CS1)c1cc(-c3cccnc3F)ccc1Oc1c2cc(C2=CCOCC2)nc1F")
"4 nM"
>>> measured_value("CC1(C)C=C(c2cnc3c(c2)[C@@]2(COC(N)=N2)c2c(ccc(-c4cncnc4)c2F)O3)CCO1")
"342 nM"
>>> measured_value("NC1=N[C@@]2(CS1)c1cc(-c3cnccc3F)ccc1Oc1ncc(C3=CCOCC3)cc12")
"16 nM"
>>> measured_value("Cc1cc(-c2ccc3c(c2)[C@@]2(COC(N)=N2)c2cc(C4=CCOCC4)ncc2O3)cnc1F")
"14 nM"
>>> measured_value("NC1=N[C@]2(CO1)c1cc(N3CCOCC3)ccc1Oc1cc(F)c(-c3cncnc3)cc12")
"43.3 nM"
>>> measured_value("CC1(C)CC(c2cnc3c(c2)[C@]2(COC(N)=N2)c2c(ccc(-c4cncnc4)c2F)O3)=CCO1")
"15.8 nM"
>>> measured_value("Cc1ccnc(F)c1-c1ccc2c(c1)[C@@]1(COC(N)=N1)c1cc(C3=CCOCC3)ncc1O2")
"6 nM"
